Every entry's value here was drawn from patent US10745460B2.

Biological target: HLA-A*02:01 (Homo sapiens, UniProt P04439, D140Y/D185E/D98H/E176V/E277Q/G131W/G231S/I119V/I121R/I166T/I218V/L300P/L318F/N151K/N90K/P208A/P217A/Q86G/Q94H/R138H/R169H/T345S)
Assay: MHC binding assay: UV-ligand exchange with β2m ELISA (peptide exchange yield)
Details: binding to HLA-A*02:01 evaluated by peptide exchange yield (UV-ligand exchange, β2m ELISA)
Measured endpoint: Peptide exchange

{"columns": ["Substance", "Peptide exchange"],
 "data": [
  ["146 (VVAAHLAGA; listed as Homo sapiens) [compound 146]", "++ (≥20% = ++)"],
  ["173 (RLIDIYKNV; listed as Homo sapiens) [compound 173]", "+++ (≥50 = +++)"],
  ["268 (SLDKDIVAL; listed as Homo sapiens) [compound 268]", "++ (≥20% = ++)"],
  ["27 (GLLGKVTSV; listed as Homo sapiens) [compound 27]", "+++ (≥50 = +++)"],
  ["124 (ALLLRLFTI; listed as Homo sapiens) [compound 124]", "++ (≥20% = ++)"]
]}

For the 5 substances below, give their Peptide exchange values.
1. 220 (ALSELERVL; listed as Homo sapiens) [compound 220]
2. 71 (HMSGKLTNV; listed as Homo sapiens) [compound 71]
3. 280 (HLWGHALFL; listed as Homo sapiens) [compound 280]
4. 59 (ALADGIKSFLL; listed as Homo sapiens) [compound 59]
5. 248 (VLMQDSRLYL; listed as Homo sapiens) [compound 248]

+++ (≥50 = +++)
++ (≥20% = ++)
+++ (≥50 = +++)
+++ (≥50 = +++)
+++ (≥50 = +++)

The following substances each have a reported value; give each one's Peptide exchange.
1. 148 (YLILSSHQL; listed as Homo sapiens) [compound 148]
2. 238 (HLQEKLQSL; listed as Homo sapiens) [compound 238]
3. 98 (FVQEKIPEL; listed as Homo sapiens) [compound 98]

1: +++ (≥50 = +++); 2: ++ (≥20% = ++); 3: +++ (≥50 = +++)

List reported Peptide exchange for each of these substances:
1. 185 (TLYQGLPAEV; listed as Homo sapiens) [compound 185]
2. 45 (FLPVSVVYV; listed as Homo sapiens) [compound 45]

["++ (≥20% = ++)", "+++ (≥50 = +++)"]

What Peptide exchange value was documented for this substance, 102 (GLYPVTLVGV; listed as Homo sapiens) [compound 102] ?
+++ (≥50 = +++)

----------
Molecular target: HLA-A*02:01 (Homo sapiens, UniProt P04439, D140Y/D185E/D98H/E176V/E277Q/G131W/G231S/I119V/I121R/I166T/I218V/L300P/L318F/N151K/N90K/P208A/P217A/Q86G/Q94H/R138H/R169H/T345S)
Test: MHC binding assay: UV-ligand exchange with β2m ELISA (peptide exchange yield)
Conditions: binding to HLA-A*02:01 evaluated by peptide exchange yield (UV-ligand exchange, β2m ELISA)
Measured endpoint: Peptide exchange

# annotated cases, reported Peptide exchange shown
{"columns": ["Substance", "Measured endpoint", "Experimental result"],
 "data": [
  ["286 (FLTEMVHFI; listed as Homo sapiens) [compound 286]", "Peptide exchange", "+++ (≥50 = +++)"],
  ["147 (GLLSALENV; listed as Homo sapiens) [compound 147]", "Peptide exchange", "+++ (≥50 = +++)"],
  ["181 (LLWAPTAQA; listed as Homo sapiens) [compound 181]", "Peptide exchange", "+++ (≥50 = +++)"],
  ["198 (ILTNKVVSV; listed as Homo sapiens) [compound 198]", "Peptide exchange", "++ (≥20% = ++)"],
  ["182 (GLQDGFQITV; listed as Homo sapiens) [compound 182]", "Peptide exchange", "+++ (≥50 = +++)"]
]}

Below is a list of substances. For each, state its recorded Peptide exchange.
1. 105 (AMLASQTEA; listed as Homo sapiens) [compound 105]
2. 154 (AIIKEIQTV; listed as Homo sapiens) [compound 154]
3. 58 (HLLGEGAFAQV; listed as Homo sapiens) [compound 58]
4. 269 (GLLDCPIFL; listed as Homo sapiens) [compound 269]
5. 100 (ALQSFEFRV; listed as Homo sapiens) [compound 100]
6. 14 (YTFSGDVQL; listed as Homo sapiens) [compound 14]
7. 219 (GVVPTIQKV; listed as Homo sapiens) [compound 219]
8. 134 (SLYKSFLQL; listed as Homo sapiens) [compound 134]

1: ++ (≥20% = ++); 2: ++ (≥20% = ++); 3: +++ (≥50 = +++); 4: ++++ (≥75% = ++++); 5: +++ (≥50 = +++); 6: +++ (≥50 = +++); 7: ++ (≥20% = ++); 8: ++ (≥20% = ++)

Quick one: give me Peptide exchange for each item below, same order please.
1. 89 (SLAETIFIV; listed as Homo sapiens) [compound 89]
2. 234 (VLLNEILEQV; listed as Homo sapiens) [compound 234]
3. 210 (GLAGDNIYL; listed as Homo sapiens) [compound 210]
4. 61 (ALYPKEITL; listed as Homo sapiens) [compound 61]
5. 190 (SLSTELFKV; listed as Homo sapiens) [compound 190]
6. 55 (HLFDKIIKI; listed as Homo sapiens) [compound 55]

+++ (≥50 = +++)
++++ (≥75% = ++++)
+++ (≥50 = +++)
+++ (≥50 = +++)
+++ (≥50 = +++)
+++ (≥50 = +++)

Please report Peptide exchange for every entry that follows.
1. 42 (KQMSISTGL; listed as Homo sapiens) [compound 42]
2. 243 (GLAEFQENV; listed as Homo sapiens) [compound 243]

++ (≥20% = ++)
++ (≥20% = ++)

----------
Biological target: HLA-A*02:01 (Homo sapiens, UniProt P04439, D140Y/D185E/D98H/E176V/E277Q/G131W/G231S/I119V/I121R/I166T/I218V/L300P/L318F/N151K/N90K/P208A/P217A/Q86G/Q94H/R138H/R169H/T345S)
Assay: MHC binding assay: UV-ligand exchange with β2m ELISA (peptide exchange yield)
Conditions: binding to HLA-A*02:01 evaluated by peptide exchange yield (UV-ligand exchange, β2m ELISA)
Measured endpoint: Peptide exchange

{"columns": ["Substance", "Measured endpoint", "Experimental result"],
 "data": [
  ["203 (FLFVDPELV; listed as Homo sapiens) [compound 203]", "Peptide exchange", "++ (≥20% = ++)"],
  ["151 (DISKRIQSL; listed as Homo sapiens) [compound 151]", "Peptide exchange", "++ (≥20% = ++)"],
  ["141 (NIDINNNEL; listed as Homo sapiens) [compound 141]", "Peptide exchange", "++ (≥20% = ++)"]
]}

----------
Target: HLA-A*02:01 (Homo sapiens, UniProt P04439, D140Y/D185E/D98H/E176V/E277Q/G131W/G231S/I119V/I121R/I166T/I218V/L300P/L318F/N151K/N90K/P208A/P217A/Q86G/Q94H/R138H/R169H/T345S)
Assay: MHC binding assay: UV-ligand exchange with β2m ELISA (peptide exchange yield)
Conditions: binding to HLA-A*02:01 evaluated by peptide exchange yield (UV-ligand exchange, β2m ELISA)
Measured endpoint: Peptide exchange

{"columns": ["Substance", "Measured endpoint", "Experimental result"],
 "data": [
  ["9 (SLITGQDLLSV; listed as Homo sapiens) [compound 9]", "Peptide exchange", "+++ (≥50 = +++)"],
  ["35 (VIIKGLEEI; listed as Homo sapiens) [compound 35]", "Peptide exchange", "++ (≥20% = ++)"],
  ["249 (YLYQILQGI; listed as Homo sapiens) [compound 249]", "Peptide exchange", "+++ (≥50 = +++)"],
  ["159 (QLGPVPVTI; listed as Homo sapiens) [compound 159]", "Peptide exchange", "+++ (≥50 = +++)"],
  ["179 (TLGEIIKGV; listed as Homo sapiens) [compound 179]", "Peptide exchange", "+++ (≥50 = +++)"],
  ["65 (SLSEKSPEV; listed as Homo sapiens) [compound 65]", "Peptide exchange", "++ (≥20% = ++)"],
  ["91 (LLPSIFLMV; listed as Homo sapiens) [compound 91]", "Peptide exchange", "++ (≥20% = ++)"],
  ["138 (GIINKLVTV; listed as Homo sapiens) [compound 138]", "Peptide exchange", "++ (≥20% = ++)"],
  ["230 (KLLNMIFSI; listed as Homo sapiens) [compound 230]", "Peptide exchange", "+++ (≥50 = +++)"],
  ["155 (TLDSYLKAV; listed as Homo sapiens) [compound 155]", "Peptide exchange", "++ (≥20% = ++)"]
]}

Below are 2 substances. Give each one its Peptide exchange.
1. 191 (AAIEIFEKV; listed as Homo sapiens) [compound 191]
2. 282 (SLYALHVKA; listed as Homo sapiens) [compound 282]

1: +++ (≥50 = +++); 2: ++ (≥20% = ++)
